- Tested on: HT-29
- Experiment notes: NCI tumour cell line growth inhibition, 48 h
Activity calls are given as the source filed them. Rule as the data show it: active = GI50 up to about 1.1 µM and inactive = higher.
A collection of compounds and their measured GI50

* Cc1oc2c(Cl)cc(O)c(Cl)c2c2cccc1-2 | 35.2 µM (inactive)
* C=CC1(c2ccc3ccccc3c2)OCC(CC)(CC)CO1 | 20.3 µM (inactive)
* O=c1cc(O)c2ccccc2o1 [4-HYDROXYCOUMARINS] | > 100 µM (inactive)
* CC1(C)C(=O)C(C)(C)C12SSC1(S2)C(C)(C)C(=O)C1(C)C | > 100 µM (inactive)
* Fc1ccccc1CN1COc2c(cc(Cl)c3cccnc23)C1 | 7.85 µM (inactive)

Input: Name the recorded GI50 for CCCCCCCCCc1c(O)c(O)c(CCCCCCCCC)c(CCCCCCCCC)c1CCCCCCCCC .
Output: > 100 µM (inactive)

Input: Also COc1cc(OC)c(OC)cc1/C=N/N=C(\N)NO ?
Output: > 100 µM (inactive)
